Data credit: ChEMBL document CHEMBL2321781

- ASSAY_EXPLANATION: Selectivity index, ratio of IC50 for rat L6 cells to IC50 for chloroquine-sensitive Plasmodium falciparum NF54
- Type: toxicity, cell-based
- SETTINGS: read-out: Ratio IC50
Returns: string. Value is True if measured selectivity ratio is below 20, and False if it is greater than or equal to it.

Some solved entries appear below for comparison.
COMPOUND | ANSWER_LABEL
Cn1c2nc3ccccc3c-2c(NCCCNC(=S)Nc2ccccc2)c2ccccc21 | False
Cn1c2nc3ccccc3c-2c(Cl)c2ccccc21 [11-CHLORONEOCRYPTOLEPINE] | True

Qu. Lab log: compare recorded selectivity ratio with 20; is it strictly lower for Cn1c2nc3ccccc3c-2c(NCCCNS(=O)(=O)c2ccc3ccccc3c2)c2ccccc21 ?
Ans. True
